Quick reference for damage to plants, Sf among some compounds
# Tested on: Sunflower
# experimentDescription: Pre-emergence herbicidal activity (Example 31)
# Type: in vivo
# condition: 5 kg/ha, after three weeks
# Description: […] The pre-emergent herbicidal activity of the compounds of the invention formulated as described in Example 30 was assessed by the following procedure. The seeds of the test species were sown in rows 2 cm deep in soil contained in seed boxes. The monocotyledonous plants and the dicotyledonous plants were sprayed with the required quantity of a composition of the invention. […] After three weeks the boxes were removed from the glasshouse and the effect of the treatment was visually assessed. […]

Examples with answers:
compound="CC(Oc1ccc(Nc2ccc(Cl)cc2[N+](=O)[O-])cc1)C(=O)OC1CCCCC1 (stereo not drawn)" obsvalue="0 (0 represents from 0 to 25% damage)"
compound="COC(=O)C(C)Oc1ccc(Nc2ccc(Cl)cc2Cl)cc1 (stereo not drawn)" obsvalue="0 (0 represents from 0 to 25% damage)"
compound="C#CCN(c1ccc(OC(C)C(=O)OC)cc1)c1ccc(C(F)(F)F)cc1[N+](=O)[O-] (stereo not drawn)" obsvalue="0 (0 represents from 0 to 25% damage)"

What is its damage to plants, Sf for Sunflower? Entry: COC(=O)C(C)Oc1ccc(Nc2ccc(Br)cc2N)cc1 (stereo not drawn)
0 (0 represents from 0 to 25% damage)

What do we get for COC(=O)C(C)Oc1ccc(Nc2ccc(Br)cc2[N+](=O)[O-])cc1 (stereo not drawn) ?
0 (0 represents from 0 to 25% damage)

Another: COC(=O)C(C)Oc1ccc(N(C)c2ccc(Cl)cc2)cc1 (stereo not drawn)
0 (0 represents from 0 to 25% damage)
